Known AUC of a selection of compounds
method: Pharmacokinetic evaluation in mice
Assay type: in vivo
applied conditions: male, mouse, plasma, po, p.o. 10 mg/kg
Please respond with the number in ng·h/mL and leave the unit unwritten.

Example cases with answers are listed next.
CP(C)(=O)c1cc2c(Nc3ccc4scnc4c3)ccnc2cc1OC(F)(F)F
89100
CP(C)(=O)c1cc2c(Nc3ccc4scnc4c3)ccnc2cc1OC(F)F
68300

Prompt: Provide measured AUC value, entry: COc1cc2nccc(Nc3ccc4scnc4c3)c2cc1P(C)(C)=O
Completion: 19200

====

method: Pharmacokinetic evaluation in mice
Format: in vivo
applied conditions: male, mouse, plasma, iv, i.v. 2 mg/kg
observation type: clearance (mL/min/kg)
Please respond with the number in mL/min/kg and leave the unit unwritten.

Example cases with answers are listed next.
COc1cc2nccc(Nc3ccc4scnc4c3)c2cc1P(C)(C)=O
11.1
CP(C)(=O)c1cc2c(Nc3ccc4scnc4c3)ccnc2cc1OC(F)(F)F
1.5

Field: next compound
Prompt: Provide measured clearance value, entry: CP(C)(=O)c1cc2c(Nc3ccc4scnc4c3)ccnc2cc1OC(F)F
Completion: 4.3
